TARGET_OR_SYSTEM: T1, full-length human vitamin D receptor (hVDR, amino acid 1-427), His-tagged (human, UniProt P11473 1-427)
T1 chain: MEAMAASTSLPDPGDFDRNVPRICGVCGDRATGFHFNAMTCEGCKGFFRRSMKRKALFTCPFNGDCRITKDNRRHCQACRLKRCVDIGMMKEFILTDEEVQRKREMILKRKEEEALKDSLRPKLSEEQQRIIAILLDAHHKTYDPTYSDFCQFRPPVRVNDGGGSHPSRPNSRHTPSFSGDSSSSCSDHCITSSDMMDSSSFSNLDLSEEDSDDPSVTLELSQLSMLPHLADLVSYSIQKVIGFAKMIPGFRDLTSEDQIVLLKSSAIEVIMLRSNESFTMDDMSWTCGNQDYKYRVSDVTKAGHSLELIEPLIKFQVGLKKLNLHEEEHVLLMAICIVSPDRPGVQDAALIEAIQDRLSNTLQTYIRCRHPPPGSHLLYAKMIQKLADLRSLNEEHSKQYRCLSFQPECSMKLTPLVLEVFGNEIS
PROCEDURE_DETAILS: MST; ZK-bound VDR
pKd: −log10 of the molar value.
RECORDED_ENDPOINT: pKd

INSERT INTO assay_data (binder, number) VALUES
  ('hWBP4 polypeptide (amino acid 122-196) encompassing the two WW domains (domain or fragment, human, UniProt O75554 122-196, looked up, also called FBP21; source: E. coli BL21 DE3, purified (glutathione sepharose, thrombin cleavage, SEC); not shown: GST, N-terminal, cleaved) DPSKGRWVEGITSEGYHYYYDLISGASQWEKPEGFQGDLKKTAVKTVWVEGLSEDGFTYYYNTETGESRWEKPDD', 4.96);
